Biological target: T1, PAH1 domain of mSin3B (a.a. 28-107) (mouse, UniProt O75182 35-114 (human entry))
T1 construct: Expressed in E. coli from pET-28a (NdeI-BamHI) and the His-tag was cut off with thrombin; Used 15N-labeled (or 13C/15N-labeled) in NMR; Stated molecular weight 9585; also called mSin3B PAH1 domain; mSin3B PAH1
T1 sequence: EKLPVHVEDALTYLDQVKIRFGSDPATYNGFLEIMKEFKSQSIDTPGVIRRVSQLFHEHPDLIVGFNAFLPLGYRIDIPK
Experiment: 1H-15N HSQC NMR, peptide added to 15N-labeled mSin3B PAH1 domain
measurement name: binding result

Some binders with known binding result results, for comparison:
KAELAAPQLIMLANVALTGE (Synthetic peptide, molecular weight 2053; Used for NMR structure analysis of the complex; also called NRSF/REST38-57) [NRSF/REST (a.a. 38-57)]: binds
AAPQLIMLANVALTGKKKKW (Synthetic peptide, molecular weight 2182; also called NRSF/REST42-56) [NRSF/REST (a.a. 42-56) to which KKKK and W are added to its C-terminus]: binds
APQLIMLANVALTGEVNGSCCDYLVGEERQMAELMPVGDNN (Recombinant, made as a GST fusion (pGEX-2T, BamHI-EcoRI) and GST was cut off with thrombin; Stated molecular weight 4511; also called NRSF/REST43-83) [NRSF/REST (a.a. 43-83)]: binds
GEERQMAELMPVGDNN (Synthetic peptide, molecular weight 1790) [NRSF/REST (a.a. 68-83)]: no binding
AELAAPQLIMLANVALT (Synthetic peptide, molecular weight 1739; also called NRSF/REST39-55) [NRSF/REST (a.a. 39-55)]: binds

Consider the record given below.
Task: I'd like to know its binding result. The binder in question is DYLVGEERQMAELMPVG (Synthetic peptide, molecular weight 1937) [NRSF/REST (a.a. 64-80)]
Result: no binding

Value source: patent US20070269898A1
